Data origin: patent US20260207602A1

target: EGFR L858R (Homo sapiens, UniProt P00533, L858R); construct: purchased SignalChem E10-122BG; assay: Biochemical EGFR inhibition assay (Caliper mobility shift), EGFR L858R; conditions: biochemical Caliper mobility shift assay, EGFR L858R enzyme; read-out: Enz EGFR L858R IC50
Sequence (P00533 25-1210 L858R): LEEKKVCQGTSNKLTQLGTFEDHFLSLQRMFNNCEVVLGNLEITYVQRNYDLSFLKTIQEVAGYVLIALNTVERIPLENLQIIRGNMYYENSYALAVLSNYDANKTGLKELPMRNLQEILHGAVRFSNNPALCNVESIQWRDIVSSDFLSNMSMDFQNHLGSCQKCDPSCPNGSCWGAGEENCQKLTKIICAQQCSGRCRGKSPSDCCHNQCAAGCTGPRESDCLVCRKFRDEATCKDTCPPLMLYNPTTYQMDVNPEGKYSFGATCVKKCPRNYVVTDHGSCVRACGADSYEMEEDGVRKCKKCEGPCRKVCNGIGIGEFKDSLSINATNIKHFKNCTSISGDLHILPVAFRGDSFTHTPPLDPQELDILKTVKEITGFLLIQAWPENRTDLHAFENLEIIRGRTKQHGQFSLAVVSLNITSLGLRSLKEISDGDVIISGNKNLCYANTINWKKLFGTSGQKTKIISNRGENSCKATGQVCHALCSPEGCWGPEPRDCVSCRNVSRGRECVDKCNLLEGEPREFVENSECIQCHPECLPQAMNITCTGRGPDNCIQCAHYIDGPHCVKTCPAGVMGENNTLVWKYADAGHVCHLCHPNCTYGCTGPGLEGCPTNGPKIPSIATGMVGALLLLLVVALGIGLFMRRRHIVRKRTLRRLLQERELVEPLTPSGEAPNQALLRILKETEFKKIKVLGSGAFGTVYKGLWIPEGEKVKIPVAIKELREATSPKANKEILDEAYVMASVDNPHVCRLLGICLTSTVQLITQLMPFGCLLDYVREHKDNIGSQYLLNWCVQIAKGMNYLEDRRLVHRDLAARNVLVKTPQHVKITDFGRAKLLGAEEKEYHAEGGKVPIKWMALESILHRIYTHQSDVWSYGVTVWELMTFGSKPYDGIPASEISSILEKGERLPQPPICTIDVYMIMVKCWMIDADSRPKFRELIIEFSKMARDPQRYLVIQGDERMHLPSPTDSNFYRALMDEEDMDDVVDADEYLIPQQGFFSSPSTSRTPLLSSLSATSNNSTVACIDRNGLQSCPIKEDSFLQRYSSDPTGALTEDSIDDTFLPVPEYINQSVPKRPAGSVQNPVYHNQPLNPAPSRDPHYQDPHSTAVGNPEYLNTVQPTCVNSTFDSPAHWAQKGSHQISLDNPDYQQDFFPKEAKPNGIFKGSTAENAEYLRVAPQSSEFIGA
pIC50: −log10 of the molar value.
Observation type: pIC50

[[record]]
compound = "CC(C)N1CCC(Oc2cc(-c3cnn(C)c3)cc3ncnc(Nc4ccc5ncsc5c4)c23)C1=O (racemic) [Example 62]"
measured_value = "≥ 8.00"

[[record]]
compound = "C[C@@H](Oc1cc(-c2cnn(C)c2)cc2ncnc(Nc3ccc4ncsc4c3)c12)[C@H](C)N(C)C (single isomer, unassigned) [Example 144]"
measured_value = "7.30 to 8.00"

[[record]]
compound = "COc1cn(C)nc1-c1cc(OC2CCN(C)CC2)c2c(Nc3ccc4ncsc4c3F)ncnc2c1 [Example 319]"
measured_value = "7.30 to 8.00"

[[record]]
compound = "C[C@@H](Oc1cc(-c2cnn(CC(C)(C)O)c2)cc2ncnc(Nc3ccc4ncsc4c3)c12)C1COC1 (single isomer, unassigned) [Example 127]"
measured_value = "≥ 8.00"

[[record]]
compound = "COc1cn(C)nc1-c1cc(OC2CCN(C)CC2)c2c(Nc3ccc4ncsc4c3)ncnc2c1 [Example 314]"
measured_value = "≥ 8.00"


----------
biological target: intracellular phosphorylation of EGFR (Tyr1068) in PC-9 cells (Homo sapiens, UniProt P00533, DEL746-750); test: PC-9 pEGFR AlphaLISA assay; details: 4 hours incubation, read-out: Phos EGFR PC9 IC50
Sequence (P00533 with tags, fused parts or gaps DEL746-750): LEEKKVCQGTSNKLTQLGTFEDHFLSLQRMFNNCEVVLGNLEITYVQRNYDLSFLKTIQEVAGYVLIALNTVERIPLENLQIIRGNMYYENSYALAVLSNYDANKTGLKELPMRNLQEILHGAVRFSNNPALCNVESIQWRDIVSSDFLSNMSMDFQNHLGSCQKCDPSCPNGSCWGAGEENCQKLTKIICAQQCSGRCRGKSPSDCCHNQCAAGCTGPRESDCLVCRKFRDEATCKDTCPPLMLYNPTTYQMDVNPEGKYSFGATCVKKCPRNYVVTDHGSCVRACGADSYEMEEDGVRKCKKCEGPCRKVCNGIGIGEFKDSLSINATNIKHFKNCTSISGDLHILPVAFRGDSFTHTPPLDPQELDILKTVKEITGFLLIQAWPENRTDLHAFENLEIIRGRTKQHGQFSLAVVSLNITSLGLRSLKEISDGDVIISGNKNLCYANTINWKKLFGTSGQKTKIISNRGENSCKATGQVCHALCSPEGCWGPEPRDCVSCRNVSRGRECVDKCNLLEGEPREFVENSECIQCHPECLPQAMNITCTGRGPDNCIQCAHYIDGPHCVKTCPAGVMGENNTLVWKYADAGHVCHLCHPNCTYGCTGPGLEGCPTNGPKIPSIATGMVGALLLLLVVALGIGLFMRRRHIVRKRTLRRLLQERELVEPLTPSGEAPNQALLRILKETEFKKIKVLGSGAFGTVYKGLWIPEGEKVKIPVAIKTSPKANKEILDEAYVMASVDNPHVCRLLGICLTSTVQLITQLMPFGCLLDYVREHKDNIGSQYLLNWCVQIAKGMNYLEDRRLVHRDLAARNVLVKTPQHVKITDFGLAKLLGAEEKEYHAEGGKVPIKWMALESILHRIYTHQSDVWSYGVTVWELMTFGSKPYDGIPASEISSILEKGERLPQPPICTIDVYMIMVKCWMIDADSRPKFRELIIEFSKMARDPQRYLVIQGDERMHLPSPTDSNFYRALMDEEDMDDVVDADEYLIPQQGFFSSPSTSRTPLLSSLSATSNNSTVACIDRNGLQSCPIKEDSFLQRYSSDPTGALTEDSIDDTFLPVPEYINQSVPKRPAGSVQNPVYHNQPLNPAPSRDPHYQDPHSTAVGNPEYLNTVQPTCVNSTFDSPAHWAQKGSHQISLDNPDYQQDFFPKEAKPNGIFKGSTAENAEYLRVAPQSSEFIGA
Observation type: IC50

[[record]]
compound = "CN1CCC2(COC2)C(Oc2cc(-c3cnn(C)c3)cc3ncnc(Nc4ccc5ncsc5c4)c23)C1 (stereo not shown)"
measured_value = "≤ 10 nM"

[[record]]
compound = "Cc1ccn(-c2cc(OC3CCOCC3)c3c(Nc4ccc5ncsc5c4)ncnc3c2)n1"
measured_value = "10.1 to 50 nM"

[[record]]
compound = "Cn1cc(-c2cc3ncnc(Nc4ccc5ncsc5c4F)c3cc2OC2CCOCC2)cn1"
measured_value = "≤ 10 nM"

[[record]]
compound = "C[C@H](CO)Oc1cc(N2CCN(C)CC2)cc2ncnc(Nc3ccc4ncsc4c3)c12 (single isomer, unassigned) [Example 294]"
measured_value = "10.1 to 50 nM"


----------
molecular target: EGFR L858R (Homo sapiens, UniProt P00533, L858R); construct: purchased SignalChem E10-122BG; test: Biochemical EGFR inhibition assay (Caliper mobility shift), EGFR L858R; conditions: biochemical Caliper mobility shift assay, EGFR L858R enzyme; read-out: Enz EGFR L858R IC50
Description: […]
pIC50: −log10 of the molar value.
Observation type: pIC50

[[record]]
compound = "C[C@@H](Oc1cc(N2CC3CC(C2)O3)cc2ncnc(Nc3ccc4ncsc4c3)c12)C1COC1"
target_system = "EGFR L858R (Homo sapiens, UniProt P00533, L858R)"
measured_value = "≥ 8.00"

[[record]]
compound = "C[C@H](Oc1cc(-c2cnn(C)c2)cc2ncnc(Nc3ccc4ncsc4c3F)c12)C(=O)N1CCOCC1 (single isomer, unassigned) [Example 283]"
target_system = "EGFR L858R (Homo sapiens, UniProt P00533, L858R)"
measured_value = "≥ 8.00"

[[record]]
compound = "CN(C)C[C@H](Oc1cc(-c2cnn(C)c2)cc2ncnc(Nc3ccc4ncsc4c3)c12)C(F)(F)F (single isomer, unassigned) [Example 178]"
target_system = "EGFR L858R (Homo sapiens, UniProt P00533, L858R)"
measured_value = "≥ 8.00"

[[record]]
compound = "CN1CC[C@@H](Nc2cc3c(Nc4ccc5ncsc5c4)ncnc3cc2-c2cnn(C)c2)[C@H](F)C1 (single isomer, unassigned) [Example 325]"
target_system = "EGFR L858R (Homo sapiens, UniProt P00533, L858R)"
measured_value = "7.30 to 8.00"

[[record]]
compound = "CN(C)CCOc1cc(-c2cnn(C)c2)cc2ncnc(Nc3ccc4ncsc4c3)c12"
target_system = "EGFR L858R (Homo sapiens, UniProt P00533, L858R)"
measured_value = "7.30 to 8.00"

